# TEST METHOD NOTES: Tolerability in Sprague-Dawley rats, plasma chemistry markers (Example 21)
# Format: in vivo
# RUN CONDITIONS: male Sprague-Dawley rats, 50 mg/kg s.c. weekly for 6 weeks (7 doses), 48 hours after last dose
Strand notation (5' to 3'): a small letter for the sugar, then the base; units joined by * are phosphorothioate-linked, units joined directly phosphodiester-linked; [ ] holds rarer units or linkages, { } end groups; capitals alone tell only the bases. e = 2'-O-(2-methoxyethyl) (MOE); k = constrained ethyl (cEt); [5mC] = 5-methylcytosine; d = 2'-deoxy (DNA); m = 2'-O-methyl
MEASURED PARAMETER: ALT (U/L)
Numbers only; they are read as U/L.

Take a look at these entries with their results.
1200857 (kA*kG*kT*dG*dT*mA*dT*dG*dT*d[5mC]*dA*dG*dA*kA*kG*kA; antisense) [compound 1200857] = 183
1198612 (kA*kA*kG*dT*dG*dT*dA*dT*dG*dT*d[5mC]*dA*kG*kA*kA*eG) [compound 1198612] = 74

GET /value?item= 1198874 (kA*kA*dG*dT*dG*dT*dA*dT*dG*dT*d[5mC]*kA*eG*kA*eA*kG) [compound 1198874] &field=ALT returns 73

---

# Tested on: Yap1 mRNA
# TEST METHOD NOTES: Inhibition of human Yap1 mRNA in squamous cell carcinoma CAL27 xenograft tumors (Example 28)
# Type: in vivo
# RUN CONDITIONS: 30 mg/kg daily for five days, CAL27 xenografts in NCr-Foxn1nu mice, relative to PBS treated
Yap1 mRNA in tumors, % UTC values, listed per item
Numbers only; they are read as % UTC.

Take a look at these entries with their results.
1198831 (CACTTTTACATTAGGA; chemically modified gapmer, further chemistry not given here) [compound 1198831] = 48
1198439 (AGTGTATGTCAGAAGA; sugar, 5-methylcytosine, phosphorothioate modifications, further chemistry not given here) [compound 1198439] = 38

GET /value?item= 1198440 (AAGTGTATGTCAGAAG; cEt, 2'-MOE, 5-methylcytosine, phosphorothioate modifications, further chemistry not given here) [compound 1198440] &field=Yap1 mRNA in tumors, % UTC returns 41

GET /value?item= 1076453 (GTAATATTGCAATCTG; 3-10-3 cEt gapmer, further chemistry not given here) [compound 1076453] &field=Yap1 mRNA in tumors, % UTC returns 46

GET /value?item= 1198623 (CTAAGTAAGGTTTCCC; modified gapmer, further chemistry not given here) [compound 1198623] &field=Yap1 mRNA in tumors, % UTC returns 44

GET /value?item= 1198728 (TATTAGAGTATGTGGC; modified gapmer, further chemistry not given here) [compound 1198728] &field=Yap1 mRNA in tumors, % UTC returns 56

GET /value?item= 958499 (ATTAGAGTATGTGGCA; 3-10-3 cEt gapmer, further chemistry not given here) [compound 958499] &field=Yap1 mRNA in tumors, % UTC returns 53

---

# Test system: Yap1 mRNA
# TEST METHOD NOTES: Antisense inhibition of human Yap1 in A-431 cells by cEt gapmers, single dose (Example 4, RTS4814)
# Format: cell-based
# RUN CONDITIONS: Table 15; A-431 cells, 5,000 cells per well, free uptake, 2,000 nM, approximately 48 hours; RTS4814; normalized to RIBOGREEN; Yap1 mRNA relative to untreated control; * = targets amplicon region of primer probe set
Strand notation (5' to 3'): a small letter for the sugar, then the base; units joined by * are phosphorothioate-linked, units joined directly phosphodiester-linked; [ ] holds rarer units or linkages, { } end groups; capitals alone tell only the bases. k = constrained ethyl (cEt); [5mC] = 5-methylcytosine; d = 2'-deoxy (DNA)
YAP1 (% UTC) values, listed per item
Numbers only; they are read as % UTC.

Take a look at these entries with their results.
1075553 (kT*kG*kA*dT*dT*dA*dT*dA*dA*d[5mC]*dA*dT*dG*k[5mC]*kT*kG; antisense) [Compound 1075553] = 77
1074401 (antisense kT*k[5mC]*k[5mC]*dG*dG*dT*dG*d[5mC]*dA*dT*dG*dT*dG*kT*k[5mC]*kT) [Compound 1074401] = 18
1075809 (kT*kA*kG*d[5mC]*dA*dA*dT*dA*dG*dA*dG*dT*dA*kA*k[5mC]*k[5mC]; antisense) [Compound 1075809] = 13
1074849 (kT*kG*kT*dT*dA*dT*dG*dA*dT*dA*dG*dG*d[5mC]*kA*k[5mC]*kA; antisense) [Compound 1074849] = 18

GET /value?item= 1074337 (antisense kG*kA*kG*dT*d[5mC]*d[5mC]*d[5mC]*dA*d[5mC]*d[5mC]*dA*dT*d[5mC]*k[5mC]*kT*kG) [Compound 1074337] &field=YAP1 (% UTC) returns 10
